assay: Apparent permeability of compound across gastrointestinal tract mimic in PBS buffer as membrane retention incubated for 5 hrs by PAMPA assay based HPLC analysis; assay type: ADME
assay_readout: Activity (%)
Report the figure in % without appending any unit label.

// below: answered compounds
[
  {
    "compound": "COc1ccc(C2CC(c3ccc(-c4ccccc4)cc3)=NN2C(C)=O)cc1OC (stereo not drawn)",
    "measurement_units": "%",
    "Activity": 9.2
  },
  {
    "compound": "CC(=O)N1N=C(c2ccc(Br)cc2)CC1c1ccc(-c2ccccc2)cc1 (stereo not drawn)",
    "measurement_units": "%",
    "Activity": 49
  }
]

## Input Reported Activity, compound COc1cc(C2=NN(C(C)=O)C(c3ccc(-c4ccccc4)cc3)C2)cc(OC)c1OC (stereo not drawn) : ____
## Output 9.5

====

# pIC50 per entry for Acetylcholinesterase (Homo sapiens, UniProt P22303)
The quantity pIC50 is defined as the negative base-10 logarithm of the molar concentration.

Example entries begin here.
[
  {
    "compound": "CC(=O)N1N=C(c2ccc(-c3ccccc3)cc2)CC1c1ccc2ccccc2c1 (stereo not drawn)",
    "assay_readout": "pIC50",
    "measurement": 6.10
  },
  {
    "compound": "CC(=O)N1N=C(c2ccc(-c3ccccc3)cc2)CC1c1cccc([N+](=O)[O-])c1 (stereo not drawn)",
    "assay_readout": "pIC50",
    "measurement": 2.99
  },
  {
    "compound": "COc1cc(C2=NN(C(C)=O)C(c3ccc(-c4ccccc4)cc3)C2)cc(OC)c1OC (stereo not drawn)",
    "assay_readout": "pIC50",
    "measurement": 2.71
  },
  {
    "compound": "CC(=O)N1N=C(c2ccc(-c3ccccc3)cc2)CC1c1ccc([N+](=O)[O-])cc1 (stereo not drawn)",
    "assay_readout": "pIC50",
    "measurement": 2.81
  },
  {
    "compound": "CC(=O)N1N=C(c2ccc(C)cc2)CC1c1ccc(-c2ccccc2)cc1 (stereo not drawn)",
    "assay_readout": "pIC50",
    "measurement": 6.07
  },
  {
    "compound": "COc1ccc(OC)c(C2=NN(C(C)=O)C(c3ccc(-c4ccccc4)cc3)C2)c1 (stereo not drawn)",
    "assay_readout": "pIC50",
    "measurement": 2.77
  },
  {
    "compound": "CC(=O)N1N=C(c2ccccc2[N+](=O)[O-])CC1c1ccc(-c2ccccc2)cc1 (stereo not drawn)",
    "assay_readout": "pIC50",
    "measurement": 7.28
  },
  {
    "compound": "CC(=O)N1N=C(c2ccc(Br)cc2)CC1c1ccc(-c2ccccc2)cc1 (stereo not drawn)",
    "assay_readout": "pIC50",
    "measurement": 6.04
  },
  {
    "compound": "CC(=O)N1N=C(c2ccc3c(c2)OCO3)CC1c1ccc(-c2ccccc2)cc1 (stereo not drawn)",
    "assay_readout": "pIC50",
    "measurement": 6.04
  },
  {
    "compound": "COc1ccc(C2=NN(C(C)=O)C(c3ccc(-c4ccccc4)cc3)C2)c(OC)c1 (stereo not drawn)",
    "assay_readout": "pIC50",
    "measurement": 2.95
  }
]

## Input Look at this compound and give its reported pIC50. CC(=O)N1N=C(c2ccc3ccccc3c2)CC1c1ccc(-c2ccccc2)cc1 (stereo not drawn)
## Output 7.17

## Input Sample CC(=O)N1N=C(c2ccc(-c3ccccc3)cc2)CC1c1ccc2c(c1)OCO2 (stereo not drawn) — what was its pIC50?
## Output 6.01

## Input Please look up its pIC50: COc1ccc(OC)c(C2CC(c3ccc(-c4ccccc4)cc3)=NN2C(C)=O)c1 (stereo not drawn)
## Output 2.85

## Input Entry COc1ccc(C2CC(c3ccc(-c4ccccc4)cc3)=NN2C(C)=O)cc1OC (stereo not drawn) : reported pIC50 = ?
## Output 2.85

## Input Requested field: pIC50. Item: CC(=O)N1N=C(c2ccc(-c3ccccc3)cc2)CC1c1ccccc1 (stereo not drawn)
## Output 2.88

## Input # lookup: pIC50 of CC(=O)N1N=C(c2ccc(-c3ccccc3)cc2)CC1c1ccccc1[N+](=O)[O-] (stereo not drawn)
## Output 6.19

## Input Consider the compound CC(=O)N1N=C(c2ccc(-c3ccccc3)cc2)CC1c1ccc(C(=O)O)cc1 (stereo not drawn) and give its measured pIC50.
## Output 2.81

## Input Fill in the blank: the reported pIC50 of CC(=O)N1N=C(c2cccc3ccccc23)CC1c1ccc(-c2ccccc2)cc1 (stereo not drawn) is ____.
## Output 2.99
